# target.or.test.system: 5-hydroxytryptamine receptor 2B (Rattus norvegicus)
# Sequence (P30994 whole entry): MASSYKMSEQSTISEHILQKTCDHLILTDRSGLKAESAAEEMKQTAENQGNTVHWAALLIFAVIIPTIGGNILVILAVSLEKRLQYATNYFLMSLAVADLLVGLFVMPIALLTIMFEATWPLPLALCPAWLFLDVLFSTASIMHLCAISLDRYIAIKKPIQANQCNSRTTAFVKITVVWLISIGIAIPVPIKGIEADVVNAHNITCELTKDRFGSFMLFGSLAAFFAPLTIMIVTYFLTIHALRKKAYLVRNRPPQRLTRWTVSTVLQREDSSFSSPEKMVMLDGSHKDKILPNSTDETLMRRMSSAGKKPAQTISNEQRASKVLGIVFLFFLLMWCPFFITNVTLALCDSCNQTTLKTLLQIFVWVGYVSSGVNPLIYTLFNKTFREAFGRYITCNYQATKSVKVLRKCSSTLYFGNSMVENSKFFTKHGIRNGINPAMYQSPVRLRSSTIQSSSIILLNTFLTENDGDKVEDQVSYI
# assay.name: Displacement of [3H]5-HT binding to serotonin receptor of rat fundus membranes
# condition.details: read-out: pA2 (converted)
Each entry below lists one item and its recorded Kb value.

- compound: "CCN(CCN(C)C)c1ccccc1"
  Kb: "537 nM"
- compound: "NCCC1CNc2ccccc21 (centres undefined)"
  Kb: "2090 nM"
- compound: "CN(C)CCn1cnc2ccccc21"
  Kb: "138 nM"
- compound: "CN(C)CCN1CCc2ccccc21"
  Kb: "269 nM"
